Record form. Attribute: IC50. Fill in for each entry.
- system_under_test: PDE2 (Cavia porcellus)
- Sequence (A0A286XUV5 22-936): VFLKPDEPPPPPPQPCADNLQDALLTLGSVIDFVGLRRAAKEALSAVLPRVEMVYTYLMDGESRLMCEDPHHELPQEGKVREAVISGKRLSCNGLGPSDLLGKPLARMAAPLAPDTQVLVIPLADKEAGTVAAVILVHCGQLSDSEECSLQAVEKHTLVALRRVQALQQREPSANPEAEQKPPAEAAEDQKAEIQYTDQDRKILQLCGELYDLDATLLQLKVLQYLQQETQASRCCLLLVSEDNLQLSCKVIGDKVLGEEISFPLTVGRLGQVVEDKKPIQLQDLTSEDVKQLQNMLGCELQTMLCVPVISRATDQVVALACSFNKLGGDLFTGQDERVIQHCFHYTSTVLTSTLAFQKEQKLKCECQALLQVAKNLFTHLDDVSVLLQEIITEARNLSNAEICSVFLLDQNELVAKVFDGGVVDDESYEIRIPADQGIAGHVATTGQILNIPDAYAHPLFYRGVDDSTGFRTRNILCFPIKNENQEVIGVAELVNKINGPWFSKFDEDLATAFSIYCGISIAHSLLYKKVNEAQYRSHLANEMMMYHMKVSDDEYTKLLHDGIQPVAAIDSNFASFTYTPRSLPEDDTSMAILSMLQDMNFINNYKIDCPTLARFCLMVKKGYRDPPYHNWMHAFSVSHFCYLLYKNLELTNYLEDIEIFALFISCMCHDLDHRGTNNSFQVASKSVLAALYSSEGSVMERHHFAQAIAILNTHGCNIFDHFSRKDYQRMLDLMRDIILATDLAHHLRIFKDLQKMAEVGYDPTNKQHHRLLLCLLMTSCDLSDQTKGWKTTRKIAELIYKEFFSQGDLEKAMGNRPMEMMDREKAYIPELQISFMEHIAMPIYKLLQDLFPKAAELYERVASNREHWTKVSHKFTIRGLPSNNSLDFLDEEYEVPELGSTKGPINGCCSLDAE
- assay_procedure: Inhibition of cyclic nucleotide PDE activity (Assay I), PDE2
- Type: biochemical, guinea pig
- condition_description: mean ± S.E.M. (n); read-out: IC50 on phosphodiesterase isozyme 2
Answers are plain numbers, in µM.

Past entries and their recorded results:
compound | obs_value
CCCCCC[C@@H]([C@@H](C)O)n1cnc2c(N)ncnc21 (racemic) [EHNA, erythro-9-(2-hydroxy-3-nonyl)adenine, reference compound] | 4.4
O=c1cc(-c2ccc(O)c(O)c2)oc2cc(O)cc(O)c12 [Luteolin] | 13.3
O=c1c(-c2ccc(O)cc2)coc2cc(O)cc(O)c12 [Genistein] | 1.7

Now look at this one.
# compound O=c1c(O)c(-c2ccc(O)c(O)c2)oc2cc(O)cc(O)c12 [Quercetin] ; its IC50 = 17.9

###

- system_under_test: PDE2 (Cavia porcellus)
- assay_procedure: Inhibition of cyclic nucleotide PDE activity (Assay I), PDE2
- Assay type: biochemical, guinea pig
pIC50: −log10 of the molar value.
value_type: pIC50

Reported pIC50 of COc1cc(O)c2c(=O)c(-c3ccc(O)cc3)coc2c1 : < 4.00

###

- system_under_test: high affinity rolipram binding sites (HARBS, PDE4H)
- Construct: IC50 for displacement of [3H]-rolipram from HARBS; other: 300 μM, guinea pig, preliminary experimental data; other: guinea pig whole brain particulates; over 300 μM not available due
- assay_procedure: Binding to particulate HARBS of whole brain, displacement of [3H]-rolipram (Assay II)
- Set-up: species or system guinea pig
- condition_description: guinea pig whole brain particulates; over 300 μM not available due to solubility; read-out: concentration for having 50% of HARBS bound
pIC50: −log10 of the molar value.
Could you please report measured pIC50 for the items listed next?

compound | system_under_test | pIC50
COc1ccc(C2CC(=O)c3c(O)cc(O)cc3O2)cc1O (centres unmarked) [Hesperetin] | high affinity rolipram binding sites (HARBS, PDE4H) | < 3.52

Turning now to a further record.
The recorded pIC50 for entry COc1cc(O)c2c(=O)c(-c3ccc(O)cc3)coc2c1 [Prunetin] equals < 3.52

###

- system_under_test: high affinity rolipram binding sites (HARBS, PDE4H)
- Construct: IC50 for displacement of [3H]-rolipram from HARBS; other: 300 μM, guinea pig, preliminary experimental data; other: guinea pig whole brain particulates; over 300 μM not available due
- assay_procedure: Binding to particulate HARBS of whole brain, displacement of [3H]-rolipram (Assay II)
- Set-up: species or system guinea pig
- condition_description: 2 nM [3H]-rolipram, guinea pig whole brain particulates, FIG. 2; read-out: IC50 for displacement of [3H]-rolipram from HARBS
value_type: IC50

Solved cases below.
compound | obs_value
COc1cc(O)c2c(=O)c(-c3ccc(O)cc3)coc2c1 | > 300 µM
COc1ccc(C2CC(=O)c3c(O)cc(O)cc3O2)cc1O (stereo not drawn) | > 300 µM

Recorded IC50 for COc1ccc(C2CC(=O)c3c(OC(C)=O)cc(OC(C)=O)cc3O2)cc1OC(C)=O (stereo not drawn) [HTA, hesperetin triacetate] on high affinity rolipram binding sites (HARBS, PDE4H) was > 300 µM

###

- system_under_test: PDE2 (Cavia porcellus, UniProt A0A286XUV5)
- assay_procedure: Inhibition of cyclic nucleotide PDE activity (Assay I), PDE2
- Assay type: biochemical, guinea pig
- condition_description: mean ± S.E.M. (n); read-out: IC50 on phosphodiesterase isozyme 2
- Experimental: Under a protocol approved by the Animal Care and Use Committee of Taipei Medical University, five male guinea pigs (Hartley), weighing 500-600 g, were sacrificed. […] The activities of PDE1-5 in the homogenate were measured with a two-step procedure according to the method of Thompson and Appleman, using cAMP with [^3H]-cAMP or cGMP with [^3 H]-cGMP as substrates. […]
pIC50: −log10 of the molar value.
Can you tell me pIC50 for the items I'm about to list?

Consider the following illustrative entries.
compound | system_under_test | obs_value
O=c1cc(-c2ccccc2)oc2cc(O)cc(O)c12 | PDE2 (Cavia porcellus, UniProt A0A286XUV5) | < 4.00
O=c1c(-c2ccc(O)cc2)coc2cc(O)ccc12 | PDE2 (Cavia porcellus, UniProt A0A286XUV5) | < 4.00

// next item, pIC50 requested
Entry O=C1CC(c2ccc(O)c(O)c2)Oc2cc(O)cc(O)c21 (stereo not drawn) ; pIC50 = < 4.00
